Target or test system: furin, P09958;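 note: purified furin at 1:10 enzyme:substrate in 50 mM HEPES pH 7.5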
Sequence (P09958 whole entry): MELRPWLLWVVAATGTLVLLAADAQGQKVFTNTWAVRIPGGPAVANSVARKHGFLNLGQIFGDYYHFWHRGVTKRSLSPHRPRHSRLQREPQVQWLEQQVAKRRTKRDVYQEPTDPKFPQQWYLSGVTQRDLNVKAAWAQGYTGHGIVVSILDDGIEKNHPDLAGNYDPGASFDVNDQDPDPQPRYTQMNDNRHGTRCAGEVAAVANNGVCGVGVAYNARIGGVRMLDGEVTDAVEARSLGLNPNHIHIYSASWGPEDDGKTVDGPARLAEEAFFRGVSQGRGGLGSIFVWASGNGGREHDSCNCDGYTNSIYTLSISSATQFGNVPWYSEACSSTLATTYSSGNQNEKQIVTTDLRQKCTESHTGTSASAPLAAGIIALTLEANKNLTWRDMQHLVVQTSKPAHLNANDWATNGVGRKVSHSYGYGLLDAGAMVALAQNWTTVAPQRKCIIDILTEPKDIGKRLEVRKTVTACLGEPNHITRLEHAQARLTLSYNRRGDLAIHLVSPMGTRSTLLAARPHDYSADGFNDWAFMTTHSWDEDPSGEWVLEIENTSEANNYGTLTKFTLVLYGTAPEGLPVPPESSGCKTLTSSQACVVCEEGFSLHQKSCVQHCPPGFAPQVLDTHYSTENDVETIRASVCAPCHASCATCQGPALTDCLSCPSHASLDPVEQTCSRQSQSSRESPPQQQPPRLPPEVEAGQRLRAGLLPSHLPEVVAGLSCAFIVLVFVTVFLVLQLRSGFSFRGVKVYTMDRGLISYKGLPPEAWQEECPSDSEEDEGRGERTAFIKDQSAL
Procedure details: furin cleavage Z-score vs untreated control; higher = more cleavage, active = 3.5 or more, inactive = 1 or less, 8 variable residues between constant flanks
Particulars: 7.5 min
This is one part of the list. The true hit rate is not given.
Outcomes: T = active, F = inactive

>>> qualitative_label("CALRYRHKRIAGNASASA [FS-1541]")
"T"
>>> qualitative_label("CAERGFFYTPAGNASASA [EK9]")
"F"
>>> qualitative_label("CARFHRACRLAGNASASA [FS-1257]")
"F"
>>> qualitative_label("CADIIICDECAGNASASA [HC816]")
"F"
>>> qualitative_label("CAITLTHPVTAGNASASA [HC978]")
"F"
>>> qualitative_label("CALEGRRKRAAGNASASA [FS-938]")
"T"
>>> qualitative_label("CAWIWFCLLLAGNASASA [HC1656]")
"F"
>>> qualitative_label("CAATCTANHDAGNASASA [HC1267]")
"F"
>>> qualitative_label("CAEVFCVQPEAGNASASA [HC1442]")
"F"
>>> qualitative_label("CAVTNDCPNSAGNASASA [HC262]")
"F"
>>> qualitative_label("CAERRKRKRSAGNASASA [FS-1119]")
"T"
